Ref: PubChem BioAssay

# assayTarget: NADPH oxidase 5 (Homo sapiens)
# testName: NOX5-dependent H2O2 signal modulators, primary screen, NOX inhibitor project, cell-based, HEK293-NOX5, Amplex Red fluorescence (AID 1161)
# experimentalParameters: HEK293-NOX5, ionomycin, 45 min, higher = more signal
Below, each of the compounds is paired with its reported z-score value.

- compound: "CC(C)=CCCC(C)=CCON=C1[C@H]2CCn3c(=O)n(Cc4cc5c(cc4Cl)OCO5)c(=O)n3[C@H]2[C@H](O)[C@@H]2O[C@H]12"
  assayTarget: "NADPH oxidase 5 (Homo sapiens)"
  z-score: -0.711
- compound: "COC(=O)CC=C[C@H](C)[C@H](CO)NS(=O)(=O)c1ccc(C)cc1"
  assayTarget: "NADPH oxidase 5 (Homo sapiens)"
  z-score: -0.484
- compound: "COc1ccccc1CN1C(=O)c2ccccc2[C@@H](C(=O)NCC(F)(F)F)[C@@H]1c1ccc(CO)cc1"
  assayTarget: "NADPH oxidase 5 (Homo sapiens)"
  z-score: -0.0947
- compound: "COC(=O)[C@H](C)NC(=O)[C@@H](C)CO"
  assayTarget: "NADPH oxidase 5 (Homo sapiens)"
  z-score: 0.468
- compound: "COC(=O)[C@]1(CO)N=C(c2ccc(OCCCO)cc2)O[C@@H]1c1ccccc1N=[N+]=[N-]"
  assayTarget: "NADPH oxidase 5 (Homo sapiens)"
  z-score: -0.514
- compound: "CS(=O)(=O)CCOC(=O)C1=CC(CCCO)=CC(c2cccs2)N(Cc2cccc(OC(F)(F)F)c2)C=C1C(=O)OCCS(C)(=O)=O (stereo unspecified)"
  assayTarget: "NADPH oxidase 5 (Homo sapiens)"
  z-score: -2.09
- compound: "COCCOC(=O)N1C(=O)[C@@]2(c3cc(C#Cc4ccc(OC)cc4)ccc31)[C@H](c1ccc(O)cc1)N1[C@H](c3ccccc3)[C@H](c3ccccc3)OC(=O)[C@H]1[C@@H]2C(N)=O"
  assayTarget: "NADPH oxidase 5 (Homo sapiens)"
  z-score: 0.305
- compound: "CCN1C(=O)[C@H]2[C@H]3[C@H](O)[C@H](O)CC(=NOC(C)CN4CCCCc5nc(C)c(C)cc54)[C@@H]3CC[C@H]2C1=O (stereo partly specified)"
  assayTarget: "NADPH oxidase 5 (Homo sapiens)"
  z-score: -0.239
- compound: "COC(=O)c1c(CC[C@@H](CO)NC(=O)N[C@H](Cc2ccccc2)Cn2cc(-c3ccccc3N)nn2)oc(C(C)=O)c1C(=O)OC"
  assayTarget: "NADPH oxidase 5 (Homo sapiens)"
  z-score: 1.74
- compound: "CC(C)CON=C1[C@H]2CCn3c(=O)n(-c4ccccc4)c(=O)n3[C@H]2[C@H](O)[C@@H]2O[C@H]12"
  assayTarget: "NADPH oxidase 5 (Homo sapiens)"
  z-score: 0.407
- compound: "CC(C)CON=C1C[C@@H](O)[C@@H](O)[C@@H]2[C@@H]3C(=O)N(C[C@@H]4CCCO4)C(=O)[C@@H]3CC[C@H]12"
  assayTarget: "NADPH oxidase 5 (Homo sapiens)"
  z-score: -0.61
- compound: "C=CCN1C(=O)[C@]2(O[C@H](CCn3cc(CCO)nn3)[C@@H]([Si](C)(C)c3ccc(OC)cc3)[C@@H]2C)c2cc(N3CCOC3=O)ccc21"
  assayTarget: "NADPH oxidase 5 (Homo sapiens)"
  z-score: 1.57
- compound: "CCOC(=O)C[C@H]1[C@H](OC(=O)c2cc3ccccc3oc2=O)[C@@H](NC(=O)c2ccc3ccccc3n2)c2cc(OCCCO)ccc2N1C(=O)c1ccccc1"
  assayTarget: "NADPH oxidase 5 (Homo sapiens)"
  z-score: 0.86
- compound: "CCCC[C@@H]1C[C@H]1[C@@H](NS(=O)(=O)c1cccc2cccnc12)c1ccc(-c2ccccc2)cc1"
  assayTarget: "NADPH oxidase 5 (Homo sapiens)"
  z-score: 1.21
- compound: "O=C1C2=CC[C@H]3C(=O)N(Cc4ccc5c(c4)OCO5)C(=O)[C@H]3[C@H]2[C@H](O)[C@@H]2O[C@H]12"
  assayTarget: "NADPH oxidase 5 (Homo sapiens)"
  z-score: 0.104
- compound: "COC(=O)[C@H](C)NC(=O)CCC1CC(OC(=O)NCc2ccc3c(c2)OCO3)CC2(CCCC(COC(=O)NCCOc3ccccc3)O2)O1 (stereo partly specified)"
  assayTarget: "NADPH oxidase 5 (Homo sapiens)"
  z-score: 0.214

====

// composite z-score lookup, one value per entry
# testName: small-molecule binders of probe aInhba, primary screen, biochemical, small-molecule microarray, 635/667 nm fluorescence (AID 1148);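 also: score merges 667nm spot fluorescence with signal-to-noise for antibody binding to printed compounds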
# experimentalParameters: higher = more signal

- compound: "CCOC(=O)[C@H](CC(C)C)NC(=O)CCC1CC(OC(=O)NCCc2ccc(F)cc2)CC2(CCCC(COC(=O)NCc3ccccc3)O2)O1 (stereo not given in full)"
  composite z-score: -0.226
- compound: "CCCNC(=O)[C@@H]1c2ccccc2C(=O)N(Cc2ccccc2Cl)[C@H]1c1ccc(CO)cc1"
  composite z-score: 0.264
- compound: "COC(=O)[C@@H]1N=C(c2ccc(OCCCO)cc2)O[C@@H]1c1ccccc1N=[N+]=[N-]"
  composite z-score: 0.168
- compound: "O=C1O[C@@H](c2ccccc2)[C@@H](c2ccccc2)N2[C@@H](c3ccc(OCCO)cc3)[C@]3(C(=O)Nc4ccccc43)[C@@H](C(=O)N3CCN(c4ncccn4)CC3)[C@H]12"
  composite z-score: 0.175
- compound: "COC(=O)CC1OC1[C@H](C)[C@@H](OC)C(C)C (stereo not given in full)"
  composite z-score: -0.0963
- compound: "COc1ccc([Si](C)(C)[C@@H]2[C@@H](CC(=O)N3CCC[C@H]3CO)O[C@]3(C(=O)N(Cc4cccc(N5CCC5=O)c4)c4ccccc43)[C@H]2C)cc1"
  composite z-score: 0.3
- compound: "COC(=O)C1=CCC(c2cccc(Cl)c2)O1 (stereo not given)"
  composite z-score: 0.0742
- compound: "O=C(NN=C1C[C@@H](O)[C@@H](O)[C@@H]2[C@@H]3C(=O)N(c4ccc(F)cc4F)C(=O)[C@@H]3CC[C@@H]12)OCc1ccccc1"
  composite z-score: -0.128
- compound: "CCOC(=O)C[C@H]1[C@H](OC(=O)c2cc3ccccc3oc2=O)[C@@H](NC(=O)c2ccc3ccccc3n2)c2cc(OCCCO)ccc2N1C(=O)c1ccccc1"
  composite z-score: 0.0345
- compound: "COC(=O)CC=C[C@@H](C)[C@@H](C=NO[C@@H](C)c1cc(-c2c(C)cc(C)cc2C)no1)OC"
  composite z-score: -0.249

====

Recorded z-score, one value per entry.
# assayTarget: NADPH oxidase 4 (Homo sapiens)
# testName: NOX4-dependent H2O2 signal modulators, primary screen, NOX inhibitor project, cell-based, HEK293-NOX4, tetracycline-induced, Amplex Red fluorescence (AID 1160)
# experimentalParameters: 45 min, higher = more signal, called active from +8 up or from −8 down

- chemSmiles: "COCCOC(=O)N1C(=O)[C@@]2(c3cc(C#CCNC(N)=O)ccc31)[C@H](c1ccc(O)cc1)N1[C@H](c3ccccc3)[C@H](c3ccccc3)OC(=O)[C@H]1[C@@H]2C(=O)N1CCCCCCC1"
  z-score: -1.04
- chemSmiles: "O=C1[C@H]2[C@H]3[C@H](O)[C@H](O)CC(=NO[C@@H]4O[C@H](CO)[C@@H](O)[C@H](O)[C@H]4O)[C@@H]3CC[C@H]2C(=O)N1c1ccc(F)cc1F"
  z-score: 0.199
- chemSmiles: "Cc1cc(C)c(-c2cc([C@H](C)ON=C3[C@H]4CCn5c(=O)n(-c6ccccc6)c(=O)n5[C@H]4[C@H](O)[C@@H]4O[C@H]34)on2)c(C)c1"
  z-score: 0.68
- chemSmiles: "C#CCCCON=C1C[C@@H](O)[C@@H](O)[C@@H]2[C@@H]3C(=O)N(Cc4ccccc4)C(=O)[C@@H]3CC[C@H]12"
  z-score: 0.196

====

# testName: COS7 lysate on small-molecule microarray, probe aHis, 635 nm (AID 1123);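 also: z-score combines 667nm fluorescence intensity with signal-to-noise per printed compound spot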
# experimentalParameters: COS7 cell lysate, fluorescence, higher = more signal
readoutLabel: composite z-score

- compound: "O=C1[C@H]2[C@H]3[C@H](O)[C@H](O)CC(=NO[C@@H]4O[C@H](CO)[C@@H](O)[C@H](O)[C@H]4O)[C@H]3CC[C@H]2C(=O)N1C1CCCCC1"
  readoutLabel: "composite z-score"
  dataValue: 0.197
- compound: "CCOC(=O)CCN1C(=O)[C@H]2[C@H]3[C@H](O)[C@H](O)CC(=O)[C@H]3CC[C@H]2C1=O"
  readoutLabel: "composite z-score"
  dataValue: 0.197
- compound: "C=CCC(OC(C)=O)[C@@H]1[C@@H](N(Cc2cc3ccccc3o2)C(=O)Cc2ccc(F)cc2)c2cc(OCCCO)ccc2N1C(=O)Cc1ccc(OC)cc1 (some centres undefined)"
  readoutLabel: "composite z-score"
  dataValue: -0.372
- compound: "CC(C)=CCCC(C)=CCON=C1C[C@@H](O)[C@@H](O)[C@@H]2[C@@H]3C(=O)N(C[C@@H]4CCCO4)C(=O)[C@@H]3CC[C@@H]12"
  readoutLabel: "composite z-score"
  dataValue: 0.877
- compound: "COc1ccc([Si](C)(C)[C@@H]2[C@@H](CC(=O)N3CCC[C@H]3CO)O[C@]3(C(=O)N(Cc4cccc(N5CCC5=O)c4)c4ccccc43)[C@H]2C)cc1"
  readoutLabel: "composite z-score"
  dataValue: 2.25
- compound: "C#C[C@@H](CC)O[Si](C#Cc1ccc(Oc2ccccc2)cc1)(C(C)C)C(C)C"
  readoutLabel: "composite z-score"
  dataValue: 0.476
- compound: "COC(=O)[C@@H]1CCCN1C(=O)[C@@H](C)CO"
  readoutLabel: "composite z-score"
  dataValue: 0.84
- compound: "C=CC[C@@H]1C=C[C@H](ON=C2c3cc(OC)ccc3O[C@H](c3cccc(OC)c3)[C@H]2O)[C@@H](CO)O1"
  readoutLabel: "composite z-score"
  dataValue: 0.425
- compound: "COC(=O)C1=CCC(c2cccc(Cl)c2)O1 (centres undefined)"
  readoutLabel: "composite z-score"
  dataValue: -0.21
